- Study System: Factor X (FX), P00742
- Sequence (P00742 whole entry, looked up): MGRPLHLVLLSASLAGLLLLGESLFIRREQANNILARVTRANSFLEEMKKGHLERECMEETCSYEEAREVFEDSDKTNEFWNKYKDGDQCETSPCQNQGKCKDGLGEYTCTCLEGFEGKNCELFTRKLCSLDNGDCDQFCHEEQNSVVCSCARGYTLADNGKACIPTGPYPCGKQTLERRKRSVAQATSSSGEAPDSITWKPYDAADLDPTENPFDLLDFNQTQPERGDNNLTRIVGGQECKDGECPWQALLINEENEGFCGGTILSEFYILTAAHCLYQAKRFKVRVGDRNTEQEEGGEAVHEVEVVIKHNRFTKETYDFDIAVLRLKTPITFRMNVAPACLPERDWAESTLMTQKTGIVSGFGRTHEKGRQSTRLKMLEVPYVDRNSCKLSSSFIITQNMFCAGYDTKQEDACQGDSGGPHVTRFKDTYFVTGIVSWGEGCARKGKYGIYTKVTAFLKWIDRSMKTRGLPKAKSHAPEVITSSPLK
Task for the reader: assign each of the following proteins its reported kcat.
// note: answer is a bare numeric in s⁻¹

Q) I am curious: what kcat value has been reported for FIXa-D104N/K106S/R318Y/R338E/R403E/E410N (protein) chain 1: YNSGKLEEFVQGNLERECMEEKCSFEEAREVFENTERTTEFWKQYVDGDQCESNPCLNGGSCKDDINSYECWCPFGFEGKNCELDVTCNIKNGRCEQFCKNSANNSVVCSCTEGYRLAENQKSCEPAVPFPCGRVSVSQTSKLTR chain 2: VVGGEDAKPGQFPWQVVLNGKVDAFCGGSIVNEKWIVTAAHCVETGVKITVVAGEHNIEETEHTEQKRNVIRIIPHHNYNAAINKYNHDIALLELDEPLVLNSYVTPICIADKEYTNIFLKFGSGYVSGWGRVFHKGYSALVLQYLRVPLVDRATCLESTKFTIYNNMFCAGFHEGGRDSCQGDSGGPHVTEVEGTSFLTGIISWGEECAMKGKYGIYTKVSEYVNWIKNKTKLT ?
A) 5.7

Q) // repeat for FIXa-R318Y/R403E/E410N (protein) chain 1: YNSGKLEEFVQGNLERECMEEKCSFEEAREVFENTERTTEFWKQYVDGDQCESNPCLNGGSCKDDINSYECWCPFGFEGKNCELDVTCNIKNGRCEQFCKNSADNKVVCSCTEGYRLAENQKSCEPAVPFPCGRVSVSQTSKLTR chain 2: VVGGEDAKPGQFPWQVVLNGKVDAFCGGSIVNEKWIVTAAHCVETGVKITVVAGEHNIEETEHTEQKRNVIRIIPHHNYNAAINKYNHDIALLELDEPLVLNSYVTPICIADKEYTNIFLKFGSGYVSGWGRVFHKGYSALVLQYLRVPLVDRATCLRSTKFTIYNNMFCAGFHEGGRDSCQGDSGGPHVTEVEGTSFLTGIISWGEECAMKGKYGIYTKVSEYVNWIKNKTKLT and report
A) 2.3
